target: Cyclooxygenase-1 (Cox-1) (Ovis aries); construct: purchased Cayman Chemical Company 760111; assay: Colorimetric Cox inhibitor screening assay (Cayman), Cox-1; assay type: biochemical
Sequence (P05979 25-600): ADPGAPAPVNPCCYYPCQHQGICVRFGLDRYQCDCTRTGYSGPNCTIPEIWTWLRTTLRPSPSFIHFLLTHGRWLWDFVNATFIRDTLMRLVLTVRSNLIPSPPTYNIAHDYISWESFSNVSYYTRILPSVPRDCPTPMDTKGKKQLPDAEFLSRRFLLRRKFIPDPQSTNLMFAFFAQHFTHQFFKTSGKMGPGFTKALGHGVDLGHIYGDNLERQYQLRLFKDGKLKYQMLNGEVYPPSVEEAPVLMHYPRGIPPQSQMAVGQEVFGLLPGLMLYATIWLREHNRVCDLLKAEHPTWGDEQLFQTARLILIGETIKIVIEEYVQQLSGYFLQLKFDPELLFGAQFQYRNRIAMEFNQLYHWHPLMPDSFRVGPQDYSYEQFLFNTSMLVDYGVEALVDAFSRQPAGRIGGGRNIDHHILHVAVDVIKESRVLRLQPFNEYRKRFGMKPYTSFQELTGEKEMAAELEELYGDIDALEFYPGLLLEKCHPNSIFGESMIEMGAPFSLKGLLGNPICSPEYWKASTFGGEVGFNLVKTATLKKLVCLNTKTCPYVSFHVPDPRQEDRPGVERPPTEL
Each record here notes measured inhibition at 100 µM.
Measured Property: inhibition at 100 µM

                                    compound  test_value
 0  O=C(O)C1(c2cc(OCc3ccccc3)cc(-c3ccc(C(F)(F)F)cc3)c2)CC1 [XXI]       < 50%
 1  CCCC(C(=O)O)c1cc(OCC2CC2)cc(-c2ccc(C(F)(F)F)cc2)c1 (centres unmarked) [XL]       < 50%
 2  O=C(O)Cc1cc(OCC2CCCCC2)cc(-c2ccc(C(F)(F)F)cc2)c1 [V]       < 50%
 3  O=C(O)Cc1cc(OCc2ccccc2)cc(-c2ccc(C(F)(F)F)cc2)c1 [X]       < 50%
 4  O=C(O)Cc1cc(OCc2ccc(F)cc2)cc(-c2ccc(C(F)(F)F)cc2)c1 [I]       < 50%
 5  CN(C)S(=O)(=O)c1ccc(COc2cc(CC(=O)O)cc(-c3ccc(C(F)(F)F)cc3)c2)cc1 [XLVI]       < 50%
 6  CCCC(C(=O)O)c1cc(OCc2ccccc2)cc(-c2ccc(C(F)(F)F)cc2)c1 (centres unmarked) [VIII]       < 50%
 7  O=C(O)Cc1cc(OCc2ccc(C(F)(F)F)cc2)cc(-c2ccc(C(F)(F)F)cc2)c1 [III]       < 50%
 8  O=C(O)Cc1cc(OCc2ccccc2)cc(-c2ccc(OC(F)(F)F)cc2)c1 [XIII]       < 50%
 9  O=C(O)Cc1cc(OCC2CC2)cc(-c2ccc(C(F)(F)F)cc2)c1 [XLII]       < 50%
10  O=C(O)Cc1cc(OCc2ccccc2)cc(-c2cc(Cl)cc(Cl)c2)c1 [IX]       < 50%
11  O=C(O)Cc1cc(OCc2cc(Cl)cc(Cl)c2)cc(-c2ccc(C(F)(F)F)cc2)c1 [XLIV]       < 50%
12  O=C(O)Cc1cc(OCc2ccc(S(=O)(=O)N3CCCC3)cc2)cc(-c2ccc(C(F)(F)F)cc2)c1 [VI]       < 50%
13  CCCC(C(=O)O)c1cc(OCc2ccc(S(=O)(=O)N3CCCC3)cc2)cc(-c2ccc(C(F)(F)F)cc2)c1 (centres unmarked) [XXXIX]       < 50%
14  CC(C(=O)O)c1cc(OCc2ccccc2)cc(-c2ccc(C(F)(F)F)cc2)c1 (centres unmarked) [XIX]       < 50%
15  CC(C)(C(=O)O)c1cc(OCc2ccccc2)cc(-c2ccc(C(F)(F)F)cc2)c1 [XX]       < 50%
16  CC(Oc1cc(CC(=O)O)cc(-c2ccc(C(F)(F)F)cc2)c1)c1ccccc1 (centres unmarked) [XLVII]       < 50%

----------
tested on: γ-secretase activity; assay: Screening for γ-secretase-modulating activity in SKN neuroblastoma cells carrying APP swedish mutant; format: cell-based; settings: read-out: IC50 on the γ-secretase activity, Activity range
pIC50: −log10 of the molar value.
Measured Property: pIC50

                           substance_smiles           test_system  measured_property    test_value
0  CS(=O)(=O)c1ccc(COc2cc(CC(=O)O)cc(-c3ccc(C(F)(F)F)cc3)c2)cc1  γ-secretase activity              pIC50  4.00 to 5.00
1  O=C(O)Cc1cc(OCC2CCCCC2)cc(-c2ccc(C(F)(F)F)cc2)c1  γ-secretase activity              pIC50        > 6.00
2  CC(=O)Nc1ccc(-c2cc(CC(=O)O)cc(OCc3ccccc3)c2)cc1  γ-secretase activity              pIC50  3.52 to 4.00
3  O=C(O)Cc1cc(OCc2ccc(Cl)cc2)cc(-c2ccc(C(F)(F)F)cc2)c1  γ-secretase activity              pIC50  5.00 to 6.00
4  O=C(O)C1(c2cc(OCc3ccccc3)cc(-c3ccc(C(F)(F)F)cc3)c2)CC1  γ-secretase activity              pIC50  5.00 to 6.00
5  Cc1cc(COc2cc(CC(=O)O)cc(-c3ccc(C(F)(F)F)cc3)c2)no1  γ-secretase activity              pIC50  4.00 to 5.00
6  O=C(O)Cc1cc(OCc2ccccc2)cc(-c2cc(Cl)cc(Cl)c2)c1  γ-secretase activity              pIC50  5.00 to 6.00
7  COc1cccc(-c2cc(CC(=O)O)cc(OCc3ccccc3)c2)c1  γ-secretase activity              pIC50  4.00 to 5.00
8  O=C(O)Cc1cc(OCc2cc(Cl)cc(Cl)c2)cc(-c2ccc(C(F)(F)F)cc2)c1  γ-secretase activity              pIC50  5.00 to 6.00
